system: ATP; test: switch fluorescence ratio, 500 uM ATP over buffer (Cy3 cluster intensity, sum of 5 cycles each) (fold (ratio)); higher = stronger signal-on switching upon ATP binding; sequences stand for … in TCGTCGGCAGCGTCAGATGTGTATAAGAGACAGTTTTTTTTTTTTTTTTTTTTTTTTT…TC; conditions: aptamer strand: ATP DNA aptamer (quencher-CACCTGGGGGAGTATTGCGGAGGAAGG + anchor), 100 nM annealed; ATP concentration: 500 uM;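 further: ATP exposure 15 min at 22 °C before imaging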
readoutName: switch fluorescence ratio

Consider the reported switch fluorescence ratio for these sequences:
{"columns": ["sequenceCode", "targetOrTestSystem", "switch fluorescence ratio"],
 "data": [
  ["TTTACGAGGG", "ATP", 0.977],
  ["GTATTTACTT", "ATP", 1.02],
  ["TTAAGTCCGG", "ATP", 0.963],
  ["CCACGGCAGG", "ATP", 1.23],
  ["TGGCTTGCCG", "ATP", 0.998]
]}

Here are 5 sequences. What values of switch fluorescence ratio were reported for them?
1. TTTATGGGTA
2. TGGGGGAGTG
3. GGGAAGTCAG
4. CGGCGGGTTT
5. AGGTGATATG

Reply:
1: 1; 2: 0.985; 3: 1; 4: 1.02; 5: 1.02

For each of the items listed, what is its switch fluorescence ratio?
1. ATTATGGGTA
2. AGGCCGGAGC
3. CCGATTTTTA

Reply:
1. 1.02
2. 1.06
3. 0.977

Hi there! I need switch fluorescence ratio for each item below, if you can.
1. CGCTAATTGG
2. TAATGGAGGG
3. TTCCGGAGAT

Reply:
1: 1.09; 2: 0.965; 3: 1.43

// batch mode: one switch fluorescence ratio value per listed entry
1. AAGGTCCAGT
2. GTGCTTGGCC
3. AGTTCGCTTT
4. TTCGGGGCAT

Reply:
1: 1.13; 2: 1; 3: 0.993; 4: 1.05
